Each entry below carries its reported max % larvae.
- Test system: Danio rerio embryo/larva
- run.description: max % larvae with abnormal position across tested concentrations; higher = more toxic; extreme values may be limits of the assay
- condition: exposure: 6-8 hpf to 5 dpf, scored at 6 dpf

{"compound": "NC(=O)C(F)(F)C(F)(F)C(F)(F)C(F)(F)C(F)(F)C(F)(F)C(F)(F)F [Perfluorooctanamide] (max tested concentration (log10 uM): 2)", "system": "Danio rerio embryo/larva", "max % larvae / %": 0}
{"compound": "OCC(F)(F)C(F)(F)C(F)(F)CO [Hexafluoroamylene glycol] (max tested concentration (log10 uM): 2)", "system": "Danio rerio embryo/larva", "max % larvae / %": 0}
{"compound": "OCCCC(F)(F)C(F)(F)C(F)(F)C(F)(F)C(F)(F)C(F)(F)C(F)(F)C(F)(F)F [3-(Perfluorooctyl)propanol] (max tested concentration (log10 uM): 2)", "system": "Danio rerio embryo/larva", "max % larvae / %": 0}

----------
- System: Danio rerio embryo/larva
- run.description: max % larvae generally abnormal across tested concentrations; higher = more toxic; extreme values may be limits of the assay
- condition: exposure: 6-8 hpf to 5 dpf, scored at 6 dpf
Each entry below carries its reported max % larvae generally abnormal across tested concentrations.
measurement.label: max % larvae generally abnormal across tested concentrations (%)

{"compound": "O=C(O)C(F)(F)C(F)(F)C(F)(F)C(F)(F)C(F)(F)C(F)(F)C(F)(F)C(F)(F)C(F)(F)F [Perfluorodecanoic acid] (max tested concentration (log10 uM): 1.47712)", "val": 50}
{"compound": "O=C(O)C(F)(F)C(F)(F)C(F)(F)C(F)(F)C(F)(F)C(F)(F)C(F)F [8H-Perfluorooctanoic acid] (max tested concentration (log10 uM): 2)", "val": 8.33}
{"compound": "FC(F)(F)C(F)(F)C(F)(F)C(F)(F)C(F)(F)C(F)(F)CCS [2-(Perfluorohexyl)ethanethiol] (max tested concentration (log10 uM): 1.60206)", "val": 8.33}
{"compound": "O=S(=O)(O)C(F)(F)C(F)(F)OC(F)(F)C(F)(F)F [Perfluoro-2-ethoxyethanesulfonic acid] (max tested concentration (log10 uM): 2)", "val": 8.33}
{"compound": "O=C(O)C(F)(F)C(F)(F)C(F)(F)C(F)(F)C(F)(F)C(F)(F)C(F)(F)C(F)(F)C(F)(F)C(F)(F)C(F)(F)C(F)(F)C(F)(F)F [Perfluorotetradecanoic acid] (max tested concentration (log10 uM): 1.30103)", "val": 2.27}

----------
Each entry below carries its reported max % larvae.
- Test system: Danio rerio embryo/larva
- run.description: max % larvae with any abnormality across tested concentrations; max tested concentration (log10 uM): 2; higher = more toxic; extreme values may be limits of the assay
- condition: exposure: 6-8 hpf to 5 dpf, scored at 6 dpf
measurement.label: max % larvae (%)

{"compound": "O=C(Cl)C(F)(F)C(F)(F)C(F)(F)C(F)(F)C(F)(F)C(F)(F)C(F)(F)F [Pentadecafluorooctanoyl chloride]", "quantity.unit": "%", "val": 16.7}
{"compound": "C=CC(=O)OCC(F)(F)C(F)(F)C(F)(F)C(F)(F)COC(=O)C=C [1H,1H,6H,6H-Perfluorohexane-1,6-diol diacrylate]", "quantity.unit": "%", "val": 100}
{"compound": "O=C(O)C(F)(F)C(F)(F)C(F)(F)F", "quantity.unit": "%", "val": 20}
{"compound": "NS(=O)(=O)C(F)(F)C(F)(F)C(F)(F)C(F)(F)C(F)(F)C(F)(F)F [Perfluorohexanesulfonamide]", "quantity.unit": "%", "val": 100}
{"compound": "OCC(F)(F)C(F)(F)C(F)(F)C(F)(F)C(F)(F)C(F)(F)C(F)(F)C(F)(F)CO [1H,1H,10H,10H-Perfluorodecane-1,10-diol]", "quantity.unit": "%", "val": 100}
{"compound": "CCNS(=O)(=O)C(F)(F)C(F)(F)C(F)(F)C(F)(F)C(F)(F)C(F)(F)C(F)(F)C(F)(F)F [N-Ethylperfluorooctane sulfonamide]", "quantity.unit": "%", "val": 100}
{"compound": "OCC(F)(F)C(F)(F)C(F)(F)C(F)(F)C(F)(F)C(F)(F)CO", "quantity.unit": "%", "val": 91.7}

----------
- Test system: Danio rerio embryo/larva
- run.description: max % larvae with blood pooling across tested concentrations; higher = more toxic; extreme values may be limits of the assay
- condition: exposure: 6-8 hpf to 5 dpf, scored at 6 dpf

{"molecule": "FC(F)(I)C(F)(F)C(F)(F)C(F)(F)C(F)(F)C(F)(F)I [1,6-Diiodoperfluorohexane] (max tested concentration (log10 uM): 2)", "max % larvae": "56.7%"}
{"molecule": "O=C(O)C=CC(F)(C(F)(F)F)C(F)(F)F [3-(Perfluoroisopropyl)-2-propenoic acid] (max tested concentration (log10 uM): 2)", "max % larvae": "16.7%"}
{"molecule": "O=C(O)C(F)(F)C(F)(F)C(F)(F)F [Perfluorobutanoic acid] (max tested concentration (log10 uM): 2)", "max % larvae": "0%"}
{"molecule": "FC(F)(F)C(F)(F)C(F)(F)C(F)(F)C(F)(F)C(F)(F)C(F)(F)CCI [1-Iodo-1H,1H,2H,2H-perfluorononane] (max tested concentration (log10 uM): 1.60206)", "max % larvae": "0%"}
{"molecule": "FC(F)(F)C(F)(F)C(F)(F)C(F)(F)C(F)(F)CCI [1-Iodo-1H,1H,2H,2H-perfluoroheptane] (max tested concentration (log10 uM): 2)", "max % larvae": "0%"}
{"molecule": "OCCC(F)(F)C(F)(F)C(F)(F)C(F)(F)F [4:2 Fluorotelomer alcohol] (max tested concentration (log10 uM): 2)", "max % larvae": "0%"}

----------
- System: Danio rerio embryo/larva
- run.description: max % larvae generally abnormal across tested concentrations; higher = more toxic; extreme values may be limits of the assay
- condition: exposure: 6-8 hpf to 5 dpf, scored at 6 dpf
Each entry below carries its reported max % larvae generally abnormal across tested concentrations.
measurement.label: max % larvae generally abnormal across tested concentrations (%)

{"compound": "OCC(F)(F)OC(F)(F)C(F)(F)OC(F)(F)C(F)(F)OC(F)(F)CO [1H,1H,11H,11H-Perfluorotetraethylene glycol] (max tested concentration (log10 uM): 1.47712)", "val": 0}
{"compound": "O=C(O)C(F)(F)C(F)(F)C(F)(F)C(F)(F)C(F)(F)C(F)(F)C(F)(F)C(F)(F)Cl [9-Chloro-perfluorononanoic acid] (max tested concentration (log10 uM): 2)", "val": 100}
{"compound": "CC(C)(C)C(=O)CC(=O)C(F)(F)C(F)(F)C(F)(F)F [(Heptafluorobutanoyl)pivaloylmethane] (max tested concentration (log10 uM): 2)", "val": 66.7}
{"compound": "OCCC(F)(F)C(F)(F)C(F)(F)C(F)(F)F [4:2 Fluorotelomer alcohol] (max tested concentration (log10 uM): 2)", "val": 4.17}
{"compound": "COC(=O)C(F)(F)C(F)(F)OC(F)(C(F)(F)F)C(F)(F)OC(F)=C(F)F (stereo not given) [Methyl perfluoro(3-(1-ethenyloxypropan-2-yloxy)propanoate)] (max tested concentration (log10 uM): 1.60206)", "val": 8.33}
{"compound": "FC(F)(F)C(F)(F)C(F)(F)C(F)(F)C(F)(F)C(F)(F)I [Perfluoro-1-iodohexane] (max tested concentration (log10 uM): 2)", "val": 0}
{"compound": "O=C(O)C(F)(F)C(F)(F)C(F)(F)C(F)(F)C(F)(F)C(F)(F)C(F)(F)C(F)(F)C(F)(F)C(F)(F)C(F)(F)C(F)(F)F [Perfluorotridecanoic acid] (max tested concentration (log10 uM): 1.30103)", "val": 16.7}
{"compound": "O=P(O)(O)CCC(F)(F)C(F)(F)C(F)(F)C(F)(F)C(F)(F)C(F)(F)C(F)(F)C(F)(F)F [((Perfluorooctyl)ethyl)phosphonic acid] (max tested concentration (log10 uM): 2)", "val": 60}
{"compound": "CCNS(=O)(=O)C(F)(F)C(F)(F)C(F)(F)C(F)(F)C(F)(F)C(F)(F)C(F)(F)C(F)(F)F [N-Ethylperfluorooctane sulfonamide] (max tested concentration (log10 uM): 1)", "val": 58.3}
{"compound": "FC(F)(F)C(F)(F)C(F)(F)C(F)(F)C(F)(F)C(F)(F)C(F)(F)C(F)(F)CCS [2-(Perfluorooctyl)ethanthiol] (max tested concentration (log10 uM): 1.60206)", "val": 8.33}

----------
Each entry below carries its reported max % larvae.
- Tested on: Danio rerio embryo/larva
- run.description: max % larvae with any abnormality across tested concentrations; max tested concentration (log10 uM): 2; higher = more toxic; extreme values may be limits of the assay
- condition: exposure: 6-8 hpf to 5 dpf, scored at 6 dpf
measurement.label: max % larvae (%)

{"molecule": "O=S(=O)(O)C(F)(F)C(F)(F)C(F)(F)C(F)(F)C(F)(F)C(F)(F)C(F)(F)C(F)(F)F [Potassium perfluorooctanesulfonate]", "measurement.label": "max % larvae", "quantity.unit": "%", "val": 100}
{"molecule": "O=S(=O)(O)C(F)(F)C(F)(F)OC(F)(F)C(F)(F)F", "measurement.label": "max % larvae", "quantity.unit": "%", "val": 16.7}
{"molecule": "C=C(C)C(=O)OCCC(F)(F)C(F)(F)C(F)(F)C(F)(F)C(F)(F)C(F)(F)F [2-(Perfluorohexyl)ethyl methacrylate]", "measurement.label": "max % larvae", "quantity.unit": "%", "val": 0}
{"molecule": "O=C(O)C(F)(F)C(F)(F)C(F)(F)C(F)(F)C(F)(F)C(F)(F)C(F)(F)F [Ammonium perfluorooctanoate]", "measurement.label": "max % larvae", "quantity.unit": "%", "val": 16.7}
{"molecule": "O=C(O)C(F)(F)C(F)(F)C(F)(F)C(F)(F)C(F)(F)C(F)(F)C(F)(F)F [Sodium perfluorooctanoate]", "measurement.label": "max % larvae", "quantity.unit": "%", "val": 0}
{"molecule": "FC(F)(F)C(F)(F)C(F)(F)C(F)(F)CCI [1H,1H,2H,2H-Perfluorohexyl iodide]", "measurement.label": "max % larvae", "quantity.unit": "%", "val": 8.33}
{"molecule": "O=C(O)C(F)(F)C(F)(F)F", "measurement.label": "max % larvae", "quantity.unit": "%", "val": 0}
